# ASSAYED_TARGET: T1, TIGIT (T cell immunoreceptor with Ig and ITIM domains) (human, UniProt Q495A1 22-141, limits assumed)
# T1 construct: also called hTIGIT; human TIGIT
# T1 sequence (looked up): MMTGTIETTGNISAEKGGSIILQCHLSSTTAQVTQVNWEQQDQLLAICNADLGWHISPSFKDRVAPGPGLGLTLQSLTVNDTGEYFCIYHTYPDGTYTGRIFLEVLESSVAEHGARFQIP
# METHOD_DESCRIPTION: SPR, VHH-V5-His
The label depends only on kon: yes if it is at least 30000 M⁻¹ s⁻¹, no if it is smaller.

| BINDER | CATEGORY_LABEL |
| --- | --- |
| TIGIT-29-33 VHH-V5-His (VHH, not shown: V5-His tag) VHH: EVQLVESGGGLVQAGGSLRLSCAASGFIFSTYAMGWFRQAPGKERELVSAITRSGITTYYADSVKGRFTISADNAKNTVYLQMNSLKPEDTAVYYCAAAAWTIYEYDYWGQGTQVTVSS | no |
| TIGIT-30-30 VHH-V5-His (VHH, not shown: V5-His tag) VHH: EVQLVESGGGLVQAGGSLRLSCAASGGTFSGRGMGWFRQAPGKEREWVSSVYIFGGSTYYADSVKGRFTISADNAKNTVYLQMNSLKPEDTAVYYCANSNKPKFDWGQGTQVTVSS | no |
| TIGIT-29-30 VHH-V5-His (VHH, not shown: V5-His tag) VHH: EVQLVESGGGLVQAGGSLRLSCAASGFTFSSYAMGWFRQAPGKEREFVAAITWSGTRTDYADSVKGRFTISADNAKNTVYLQMNSLKPEDTAVYYCAAAAWRYSEYDYWGQGTQVTVSS | yes |

Okay, next one:
Is kon at least 30000 M⁻¹ s⁻¹? Consider TIGIT-30-43 VHH-V5-His (VHH, not shown: V5-His tag) VHH: EVQLVESGGGLVQAGGSLRLSCAASGFTFSTSWMGWFRQAPGKERELVAARNSGGNTNYADSVKGRFTISADNAKNTVYLQMNSLKPEDTAVYYCAADVWYGSTWRNWGQGTQVTVSS
yes
